# tested.target: T1, Rat Serum Albumin (rat, UniProt P02770 25-608)
# T1 construct: mature; purified protein on CM5 chips for BIAcore; also called RSA; rat SA
# T1 sequence (P02770 25-608): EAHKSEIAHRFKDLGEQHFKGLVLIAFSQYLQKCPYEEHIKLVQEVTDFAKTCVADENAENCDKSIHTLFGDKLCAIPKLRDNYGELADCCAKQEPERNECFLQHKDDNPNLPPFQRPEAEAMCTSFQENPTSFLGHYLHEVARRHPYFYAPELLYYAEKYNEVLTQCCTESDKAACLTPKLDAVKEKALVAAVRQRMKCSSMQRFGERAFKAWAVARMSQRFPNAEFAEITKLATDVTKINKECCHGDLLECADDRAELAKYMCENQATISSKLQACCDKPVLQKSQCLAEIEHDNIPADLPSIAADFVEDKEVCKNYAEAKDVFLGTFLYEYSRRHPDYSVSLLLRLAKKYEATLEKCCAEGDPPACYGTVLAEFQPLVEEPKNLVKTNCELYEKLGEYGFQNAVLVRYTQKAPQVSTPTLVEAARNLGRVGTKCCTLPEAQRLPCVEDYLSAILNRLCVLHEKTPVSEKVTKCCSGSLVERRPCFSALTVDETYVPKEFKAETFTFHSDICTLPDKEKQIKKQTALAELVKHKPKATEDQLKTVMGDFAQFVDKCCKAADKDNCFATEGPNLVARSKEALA
# experiment.description: BIAcore SPR
measurement.label: kon (M⁻¹ s⁻¹)
Reply with just the number (in M⁻¹ s⁻¹).

State the recorded kon for this entry: DOM7h-11-86 (other, Vk dAb; also called DOM7h-11-65 W108R/N106I) VL: DIQMTQSPSSLSASVGDRVTITCRASRPIGTMLSWYQQKPGKAPKLLILAFSRLQSGVPSRFSGSGSGTDFTLTISSLQPEDVATYYCAQAGTHPTTFGQGTKVEIKR
560000

Form field: reported kon of DOM7h-11-87 (other, Vk dAb; also called DOM7h-11-67 W108R/N106I) VL: DIQMTQSPSSLSASVGDRVTITCRASRPIGTMLSWYQQKPGKAPKLLILAFSRLQSGVPSRFSGSGSGTDFTLTISSLQPEDFATYYCAQAGTHHTTFGQGTKVEIKR
830000

Looking for the measured kon of DOM7h-11-88 (other, Vk dAb; also called DOM7h-11-67 W108R) VL: DIQMTQSPSSLSASVGDRVTITCRASRPIGTMLSWYQQKPGKAPKLLILAFSRLQSGVPSRFSGSGSGTDFTLTISSLQPEDFATYYCAQAGTHHTTFGQGTKVENKR , can you help?
846000

Item under review: DOM7h-11-90 (other, Vk dAb; also called DOM7h-11-57 W108R/N106I) VL: DIQMTQSPSSLSASVGDRVTITCRASRPIGTMLSWYQQKPGKAPKLLILAFSRLQSGVPSRFSGSGSGTDFTLTISNLQPEDFATYYCAQAGTHPTTFGQGTKVEIKR . Reported kon?
376000

Provenance of the data: patent US20130129746A1
